These measurements were taken from the RNAGym collection of RNA variant scans (doi:10.7554/elife.80360).

B1: HDV Ribozyme (parent)
chain: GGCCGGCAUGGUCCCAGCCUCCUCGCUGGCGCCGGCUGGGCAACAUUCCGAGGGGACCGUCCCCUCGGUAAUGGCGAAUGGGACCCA

Variants of: B1
test.summary: self-cleavage, relative activity (ratio to wild type); higher = more cleavage; co-transcriptional
experimental.readout: self-cleavage
Write no unit; give the number alone.

Some solved cases for reference:
G40C G67C	0.439
C22G A43C	0.0811

Input: Give the measured self-cleavage of A8U G52U .
Output: 0.872

Input: Note, next up: G10C C36U
Output: 0.554

Input: Queued: C30A A71C
Output: 0.345

Input: Note, next up: A78C C84A
Output: 0.156

Input: And for G35A G39A ?
Output: 0.219

Input: # iterate: A45U C64A
Output: 0.882

Input: // same read-out, input: G31U C63A
Output: 0.468

Input: And C14A A87G ?
Output: 0.659

Input: Further, for A16G C48G ?
Output: 0.914

Input: Also C13U C18A ?
Output: 0.0652

Input: What would you report for C66U G73U ?
Output: 0.284
